Cited source for all entries: patent US20230265116A1

# assayed-target: EGFR L858R/T790M/C797S (BaF3-LTC cells) (Homo sapiens, UniProt P00533, C797S/L858R/T790M)
# Construct: expressed in transfected cells; host or cells: BaF3
# Sequence (P00533 25-1210 T790M/C797S/L858R): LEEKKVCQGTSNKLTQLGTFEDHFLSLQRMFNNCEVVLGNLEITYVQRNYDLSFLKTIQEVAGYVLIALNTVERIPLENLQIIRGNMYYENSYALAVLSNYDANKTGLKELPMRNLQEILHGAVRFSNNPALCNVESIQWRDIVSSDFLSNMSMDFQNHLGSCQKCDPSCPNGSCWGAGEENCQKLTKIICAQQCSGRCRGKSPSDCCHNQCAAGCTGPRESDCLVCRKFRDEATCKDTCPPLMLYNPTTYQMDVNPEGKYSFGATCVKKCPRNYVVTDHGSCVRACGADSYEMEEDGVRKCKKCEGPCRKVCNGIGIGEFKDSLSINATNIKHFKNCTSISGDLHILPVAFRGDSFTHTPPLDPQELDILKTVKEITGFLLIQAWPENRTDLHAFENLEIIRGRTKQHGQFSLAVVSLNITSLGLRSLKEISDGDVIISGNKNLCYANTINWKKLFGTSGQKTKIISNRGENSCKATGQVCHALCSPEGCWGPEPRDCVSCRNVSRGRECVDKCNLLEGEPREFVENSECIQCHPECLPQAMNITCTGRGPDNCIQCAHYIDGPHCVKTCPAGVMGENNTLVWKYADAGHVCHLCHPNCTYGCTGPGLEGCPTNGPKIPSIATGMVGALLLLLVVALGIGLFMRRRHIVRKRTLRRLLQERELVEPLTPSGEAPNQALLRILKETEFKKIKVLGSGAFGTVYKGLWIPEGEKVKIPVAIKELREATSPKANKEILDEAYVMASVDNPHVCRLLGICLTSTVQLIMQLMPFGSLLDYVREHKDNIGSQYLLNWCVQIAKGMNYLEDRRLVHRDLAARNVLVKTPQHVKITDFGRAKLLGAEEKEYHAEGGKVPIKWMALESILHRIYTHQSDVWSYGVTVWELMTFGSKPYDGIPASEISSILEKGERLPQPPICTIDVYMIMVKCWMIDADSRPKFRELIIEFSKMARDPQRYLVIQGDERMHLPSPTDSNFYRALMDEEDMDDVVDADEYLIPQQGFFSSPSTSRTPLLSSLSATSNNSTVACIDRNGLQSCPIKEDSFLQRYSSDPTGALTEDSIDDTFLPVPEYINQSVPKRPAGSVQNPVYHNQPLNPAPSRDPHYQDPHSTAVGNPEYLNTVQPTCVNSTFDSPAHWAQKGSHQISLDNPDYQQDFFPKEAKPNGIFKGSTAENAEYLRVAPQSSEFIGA
# protocol-description: EGFR degradation HTRF assay, BaF3-LTC cells
# Assay type: cell-based
# protocol-conditions: BaF3-LTC cells; EGFR degradation, IC50 (DC50) from curve fit; read-out: DC50(nM) BaF3-LTC
Overview of recorded DC50 for various compounds
measured-attribute: DC50 (nM)

compound	assayed-target	measured-attribute	unit-info	reported-measurement
CCOc1cc(N2CCC(N3CCN(CCN(C)c4cccc5c4oc(=O)n5C4CCC(=O)NC4=O)CC3)CC2)c(CC)cc1Nc1ncc(Br)c(Nc2cc(F)c3nc(CC)ccc3c2P(C)(C)=O)n1 (centres unmarked) [Example 604]	EGFR L858R/T790M/C797S (BaF3-LTC cells) (Homo sapiens, UniProt P00533, C797S/L858R/T790M)	DC50	nM	18.5
CCc1ccc2c(P(C)(C)=O)c(Nc3nc(Nc4cc(CC)c(N5CCC(N6CCN(C(=O)[C@@H]7CCN(c8cc(F)c(C9CCC(=O)NC9=O)c(F)c8)C7)CC6)CC5)cc4OC)ncc3Br)ccc2n1 (some centres unmarked) [Example 515]	EGFR L858R/T790M/C797S (BaF3-LTC cells) (Homo sapiens, UniProt P00533, C797S/L858R/T790M)	DC50	nM	19.7
CCOc1cc(N2CCC(N3CCN(CCc4ccc5c(c4)oc(=O)n5C4CCC(=O)NC4=O)CC3)CC2)c(CC)cc1Nc1ncc(Br)c(Nc2ccc3nc(C)ccc3c2P(C)(C)=O)n1 (centres unmarked) [Example 532]	EGFR L858R/T790M/C797S (BaF3-LTC cells) (Homo sapiens, UniProt P00533, C797S/L858R/T790M)	DC50	nM	2.96
CCOc1cc(N2CCC(N3CCN(CCC4CCN(c5cc(F)cc6c5oc(=O)n6C5CCC(=O)NC5=O)CC4)CC3)CC2)c(CC)cc1Nc1ncc(Br)c(Nc2ccc3nc(CC)ccc3c2P(C)(C)=O)n1 (centres unmarked) [Example 556]	EGFR L858R/T790M/C797S (BaF3-LTC cells) (Homo sapiens, UniProt P00533, C797S/L858R/T790M)	DC50	nM	14.8
CCOc1cc(N2CCC(N3CCN(CCCc4cc(OC)cc5c4oc(=O)n5C4CCC(=O)NC4=O)CC3)CC2)c(CC)cc1Nc1ncc(Br)c(Nc2ccc3nc(CC)ccc3c2P(C)(C)=O)n1 (centres unmarked) [Example 597]	EGFR L858R/T790M/C797S (BaF3-LTC cells) (Homo sapiens, UniProt P00533, C797S/L858R/T790M)	DC50	nM	28.2
